# collection of pIC50 values tested on Beta-secretase 1 (Homo sapiens, UniProt P56817)
# Sequence (P56817 whole entry): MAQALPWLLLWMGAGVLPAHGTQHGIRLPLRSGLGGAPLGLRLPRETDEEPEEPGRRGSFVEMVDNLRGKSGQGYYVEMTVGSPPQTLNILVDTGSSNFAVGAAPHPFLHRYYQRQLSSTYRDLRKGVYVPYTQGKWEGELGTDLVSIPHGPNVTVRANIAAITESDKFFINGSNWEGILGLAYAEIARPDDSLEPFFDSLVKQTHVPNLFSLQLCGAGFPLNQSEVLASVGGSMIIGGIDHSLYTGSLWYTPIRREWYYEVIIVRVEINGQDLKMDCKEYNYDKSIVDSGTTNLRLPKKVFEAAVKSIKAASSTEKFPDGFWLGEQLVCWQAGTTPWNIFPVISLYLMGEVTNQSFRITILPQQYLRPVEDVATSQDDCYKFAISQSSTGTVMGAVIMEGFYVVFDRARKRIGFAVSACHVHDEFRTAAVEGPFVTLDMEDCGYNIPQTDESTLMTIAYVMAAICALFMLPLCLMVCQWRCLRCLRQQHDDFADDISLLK
The value called pIC50 is obtained by taking minus log10 of the concentration in mol/L.

Recorded pIC50, per entry:
structure_smiles_string | endpoint_label | experimental_value
CC(C)(C)c1cccc(CNC[C@@H](O)[C@H](Cc2ccccc2)NC(=O)C(c2ccccc2)c2ccccc2)c1 | pIC50 | 5.23
CC(C)(C)c1ccc(CNC[C@H](O)[C@H](Cc2ccccc2)NC(=O)C(c2ccccc2)c2ccccc2)cc1 | pIC50 | 5.68

Qu. I'd like to know its pIC50. The compound in question is O=C(CC(c1ccccc1)c1ccccc1)N[C@@H](Cc1ccccc1)[C@H](O)CNCc1ccccc1
Ans. 4.45

Qu. Now the compound CC(C)c1cccc(CNC[C@@H](O)[C@H](Cc2ccccc2)NC(=O)CC(c2ccccc2)c2ccccc2)c1
Ans. 5.34

Qu. Now the compound O=C(N[C@@H](Cc1ccccc1)[C@@H](O)CNCc1cccc(C(F)(F)F)c1)C(c1ccccc1)c1ccccc1
Ans. 5.07

Qu. Now the compound O=C(N[C@@H](Cc1ccccc1)[C@H](O)CNCC(F)(F)F)C(c1ccccc1)c1ccccc1
Ans. 4.81

Qu. Now the compound CC(C)(C)c1cccc(CNC[C@@H](O)[C@H](Cc2ccccc2)NC(=O)CC(c2ccccc2)c2ccccc2)c1
Ans. 5.22

Qu. Now the compound CC(C)(NC[C@@H](O)[C@H](Cc1ccccc1)NC(=O)CC(c1ccccc1)c1ccccc1)c1ccccc1
Ans. 5.05

* * *

target: Beta-secretase 1 (Homo sapiens)
Item-by-item account of IC50
Answer format: numeric, µM implied, no suffix.

Recorded IC50, per entry:
compound | IC50 / µM
CC(C)c1cccc(CNC[C@H](O)[C@H](Cc2ccccc2)NC(=O)C(c2ccccc2)c2ccccc2)c1 | 3.4
COc1ccccc1CNC[C@H](O)[C@H](Cc1ccccc1)NC(=O)CC(c1ccccc1)c1ccccc1 | 23.4
CC(C)c1cccc(CNC[C@@H](O)[C@H](Cc2ccccc2)NCCC(c2ccccc2)c2ccccc2)c1 | 6.6

Qu. I'd like to know its IC50. The compound in question is CC(C)(C)c1cccc(CNCC(O)CNCCC(c2ccccc2)c2ccccc2)c1 (centres undefined)
Ans. 41.6

* * *

molecular target: Cholinesterase (Equus caballus, UniProt P81908)
Sequence (P81908 whole entry): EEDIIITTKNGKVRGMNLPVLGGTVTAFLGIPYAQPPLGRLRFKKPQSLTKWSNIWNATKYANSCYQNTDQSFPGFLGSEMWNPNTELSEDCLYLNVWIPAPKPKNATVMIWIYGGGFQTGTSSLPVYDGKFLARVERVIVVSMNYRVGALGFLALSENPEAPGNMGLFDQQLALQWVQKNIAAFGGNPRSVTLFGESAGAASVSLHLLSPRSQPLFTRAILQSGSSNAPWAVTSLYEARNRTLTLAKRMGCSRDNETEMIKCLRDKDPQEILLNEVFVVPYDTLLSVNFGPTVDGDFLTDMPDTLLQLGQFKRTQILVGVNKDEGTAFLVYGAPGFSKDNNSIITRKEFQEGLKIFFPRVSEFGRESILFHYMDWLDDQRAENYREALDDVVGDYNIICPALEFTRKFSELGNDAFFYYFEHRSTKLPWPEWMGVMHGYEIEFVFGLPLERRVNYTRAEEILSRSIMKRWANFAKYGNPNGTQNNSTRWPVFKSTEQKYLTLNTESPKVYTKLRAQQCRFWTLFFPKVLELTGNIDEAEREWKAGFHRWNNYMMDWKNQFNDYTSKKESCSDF
In plain terms, low IC50, meaning strictly below 1000 nM, gives rule met, and everything else gives rule not met.

Example entries and their recorded answers appear below.
structure_smiles_string | class_name
O=C(CC(c1ccccc1)c1ccccc1)N[C@@H](Cc1ccccc1)[C@H](O)CNCC1CC1 | rule not met
C[C@H](NC[C@@H](O)[C@H](Cc1ccccc1)NCC(c1ccccc1)c1ccccc1)c1ccccc1 | rule met
C[C@H](NC[C@@H](O)[C@H](Cc1ccccc1)NC(=O)CC(c1ccccc1)c1ccccc1)c1ccccc1 | rule not met
CC(C)(C)CNC[C@@H](O)[C@H](Cc1ccccc1)NCC(c1ccccc1)c1ccccc1 | rule met
COc1cccc(CNC[C@@H](O)[C@H](Cc2ccccc2)NC(=O)CC(c2ccccc2)c2ccccc2)c1 | rule not met

Qu. Does O=C(N[C@@H](Cc1ccccc1)[C@H](O)CNCc1ccccc1)C(c1ccccc1)c1ccccc1 have IC50 strictly under 1000 nM?
Ans. rule not met

Qu. Now the compound CC(C)c1cccc(CNC[C@@H](O)[C@H](Cc2ccccc2)NCCC(c2ccccc2)c2ccccc2)c1
Ans. rule not met

Qu. Now the compound CC(C)c1cccc(CNC[C@@H](O)[C@H](Cc2ccccc2)NC(=O)C(c2ccccc2)c2ccccc2)c1
Ans. rule met

* * *

target: Cholinesterase (Homo sapiens)
Sequence (P06276 whole entry): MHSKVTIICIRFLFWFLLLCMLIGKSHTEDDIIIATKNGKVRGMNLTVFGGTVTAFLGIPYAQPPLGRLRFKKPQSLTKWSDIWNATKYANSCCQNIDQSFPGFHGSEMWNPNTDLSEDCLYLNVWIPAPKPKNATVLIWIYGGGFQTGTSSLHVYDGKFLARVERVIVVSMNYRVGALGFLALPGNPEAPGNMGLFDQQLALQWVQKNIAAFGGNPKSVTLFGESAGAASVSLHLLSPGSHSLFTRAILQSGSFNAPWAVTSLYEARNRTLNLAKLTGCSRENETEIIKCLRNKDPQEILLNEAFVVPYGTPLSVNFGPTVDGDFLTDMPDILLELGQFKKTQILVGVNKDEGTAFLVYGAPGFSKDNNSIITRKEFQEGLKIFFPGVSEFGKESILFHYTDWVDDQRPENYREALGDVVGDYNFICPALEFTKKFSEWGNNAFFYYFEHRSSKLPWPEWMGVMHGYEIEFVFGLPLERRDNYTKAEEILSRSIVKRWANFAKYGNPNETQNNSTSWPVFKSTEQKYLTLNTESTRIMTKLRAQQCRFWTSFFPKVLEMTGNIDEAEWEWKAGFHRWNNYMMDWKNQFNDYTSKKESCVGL
Item-by-item account of pIC50
The value called pIC50 is obtained by taking minus log10 of the concentration in mol/L.

compound | target | pIC50
CC(C)(C)CNC[C@@H](O)[C@H](Cc1ccccc1)NC(=O)C(c1ccccc1)c1ccccc1 | Cholinesterase (Homo sapiens) | 6.35
CC(C)c1cccc(CNC[C@@H](O)[C@H](Cc2ccccc2)NC(=O)C(c2ccccc2)c2ccccc2)c1 | Cholinesterase (Homo sapiens) | 7.10
CC(C)(C)CNC[C@@H](O)[C@H](Cc1ccccc1)NCC(c1ccccc1)c1ccccc1 | Cholinesterase (Homo sapiens) | 6.72
COc1cccc(CNC[C@@H](O)[C@H](Cc2ccccc2)NC(=O)CC(c2ccccc2)c2ccccc2)c1 | Cholinesterase (Homo sapiens) | 6.36
O[C@H](CNCc1ccccc1)[C@H](Cc1ccccc1)NCC(c1ccccc1)c1ccccc1 | Cholinesterase (Homo sapiens) | 6.49

Qu. I'd like to know its pIC50. The compound in question is COc1ccccc1CNC[C@H](O)[C@H](Cc1ccccc1)NCC(c1ccccc1)c1ccccc1
Ans. 6.24

Qu. Now the compound COc1ccccc1CNC[C@H](O)[C@H](Cc1ccccc1)NC(=O)C(c1ccccc1)c1ccccc1
Ans. 6.27

Qu. Now the compound O[C@@H](CNCc1ccccc1)[C@H](Cc1ccccc1)NCCC(c1ccccc1)c1ccccc1
Ans. 6.20

Qu. Now the compound CC(C)(C)c1ccc(CNCC(O)[C@H](Cc2ccccc2)NC(=O)CC(c2ccccc2)c2ccccc2)cc1 (single isomer, unassigned)
Ans. 6.06

Qu. Now the compound COc1ccccc1CNC[C@H](O)[C@H](Cc1ccccc1)NCCC(c1ccccc1)c1ccccc1
Ans. 6.10

Qu. Now the compound C[C@H](NC[C@@H](O)[C@H](Cc1ccccc1)NCC(c1ccccc1)c1ccccc1)c1ccccc1
Ans. 6.04

Qu. Now the compound CC(C)c1cccc(CNC[C@@H](O)[C@H](Cc2ccccc2)NC(=O)CC(c2ccccc2)c2ccccc2)c1
Ans. 6.30

Qu. Now the compound CC(C)(C)c1cccc(CNCC(O)CNCCC(c2ccccc2)c2ccccc2)c1 (configuration not stated)
Ans. 5.24

Qu. Now the compound O=C(N[C@@H](Cc1ccccc1)[C@@H](O)CNCc1cccc(C(F)(F)F)c1)C(c1ccccc1)c1ccccc1
Ans. 6.17

* * *

target: Cholinesterase (Equus caballus, UniProt P81908)
pIC50: −log10 of the molar value.
So basically: pIC50 at 6 or higher? That is criterion met. Lower than 6? That is criterion not met.

structure_smiles_string | target | class_name
O[C@@H](CNCc1ccccc1)[C@H](Cc1ccccc1)NCCC(c1ccccc1)c1ccccc1 | Cholinesterase (Equus caballus, UniProt P81908) | criterion met

Qu. Quick check, pIC50 >= 6? CC(C)c1cccc(CNC[C@H](O)[C@H](Cc2ccccc2)NC(=O)C(c2ccccc2)c2ccccc2)c1
Ans. criterion met

Qu. Now the molecule O=C(N[C@@H](Cc1ccccc1)[C@@H](O)CNCc1cccc(C(F)(F)F)c1)C(c1ccccc1)c1ccccc1
Ans. criterion met

Qu. Now the molecule COc1cccc(CNC[C@@H](O)[C@H](Cc2ccccc2)NC(=O)C(c2ccccc2)c2ccccc2)c1
Ans. criterion not met

Qu. Now the molecule CC(C)(C)c1ccc(CNC[C@H](O)[C@H](Cc2ccccc2)NC(=O)C(c2ccccc2)c2ccccc2)cc1
Ans. criterion not met

* * *

experiment: Metabolic stability in human liver microsomes assessed as parent compound remaining after 120 mins in presence of NADPH regeneration system by UPLC/MS anlaysis; type: ADME, Microsome; conditions: read-out: Stabilty
Item-by-item account of remaining at 2 h
Answer format: numeric, % implied, no suffix.

Recorded remaining at 2 h, per entry:
structure_smiles_string | endpoint_label | experimental_value
CC(C)(C)c1cccc(CNC[C@@H](O)[C@H](Cc2ccccc2)NC(=O)C(c2ccccc2)c2ccccc2)c1 | remaining at 2 h | 79.6
CC(C)(C)CNC[C@@H](O)[C@H](Cc1ccccc1)NC(=O)C(c1ccccc1)c1ccccc1 | remaining at 2 h | 79.2

In the following, a different compound is considered.
Qu. I'd like to know its remaining at 2 h. The compound in question is CC(C)c1cccc(CNC[C@@H](O)[C@H](Cc2ccccc2)NC(=O)CC(c2ccccc2)c2ccccc2)c1
Ans. 67.9

* * *

target: UniProt:P81908
endpoint_label: IC50

Recorded IC50, per entry:
structure_smiles_string | IC50
CC(C)(C)CNC[C@@H](O)[C@H](Cc1ccccc1)NC(=O)CC(c1ccccc1)c1ccccc1 | 2.77 µM
CC(C)(C)CNC[C@@H](O)[C@H](Cc1ccccc1)NC(=O)C(c1ccccc1)c1ccccc1 | 0.1 µM
O=C(N[C@@H](Cc1ccccc1)[C@H](O)CNCC1CC1)C(c1ccccc1)c1ccccc1 | 3.21 µM
CC(C)(C)NC[C@H](O)[C@H](Cc1ccccc1)NC(=O)CC(c1ccccc1)c1ccccc1 | 11.8 µM
CC(C)(C)NC[C@H](O)[C@H](Cc1ccccc1)NC(=O)C(c1ccccc1)c1ccccc1 | 0.84 µM
CC(C)(NC[C@@H](O)[C@H](Cc1ccccc1)NC(=O)CC(c1ccccc1)c1ccccc1)c1ccccc1 | 3.23 µM
COc1cccc(CNC[C@@H](O)[C@H](Cc2ccccc2)NCCC(c2ccccc2)c2ccccc2)c1 | 2.04 µM
CC(C)(NC[C@@H](O)[C@H](Cc1ccccc1)NCCC(c1ccccc1)c1ccccc1)c1ccccc1 | 1.6 µM

In the following, a different compound is considered.
Qu. I'd like to know its IC50. The compound in question is CC(C)(C)NC[C@H](O)[C@H](Cc1ccccc1)NCCC(c1ccccc1)c1ccccc1
Ans. 0.19 µM
